Source listed as ChEMBL document CHEMBL1157933.

Listing: pIC50 of selected molecules
Tested on: HL-60
Test: Antiproliferative activity against human HL60 cells after 48 hrs by MTT assay
Assay type: functional, cell-based
Conditions: HL-60, 48 h
pIC50: −log10 of the molar value.
quantity measured: pIC50

• Oc1c(Sc2ccccc2)c(Sc2ccccc2)c(O)c2ncccc12 = 5.16
• O=C1C(NCCBr)=C(Cl)C(=O)c2ncccc21 = 5.78
• CSC1=C(N)C(=O)c2cccnc2C1=O = 5.12
• CNC1=C(Cl)C(=O)c2cccnc2C1=O = 5.37
• C[S+]([O-])C1=C(N)C(=O)c2cccnc2C1=O (stereo unspecified) = 5.89
• CS(=O)(=O)C1=C(N)C(=O)c2cccnc2C1=O = 5.34
• Cc1ccc(S(=O)(=O)C2=C(S(=O)(=O)c3ccc(C)cc3)C(=O)c3ncccc3C2=O)cc1 = 4.21
• Cc1ccc2c(n1)C(=O)C(NCCBr)=C(Cl)C2=O = 5.92
• O=C1C(Cl)=C(NCCCl)C(=O)c2ncccc21 = 5.71
• CNC1=C(Sc2ccccc2)C(=O)c2ncccc2C1=O = 5.10
• Cc1ccc2c(n1)C(=O)C(Cl)=C(Cl)C2=O = 4.73
• O=C1C2=C(NCCS2)C(=O)c2ncccc21 = 5.45
• O=C1C(NCCCl)=C(Cl)C(=O)c2ncccc21 = 5.79
• Cc1ccc2c(n1)C(=O)C(Cl)=C(NCCBr)C2=O = 5.89
• O=C1C(NC(c2ccccc2)c2ccccc2)=C(Cl)C(=O)c2ncccc21 = 5.61
• O=C1C(Cl)=C(NCCBr)C(=O)c2ncccc21 = 5.92
• CSC1=C(SC)C(=O)c2ncccc2C1=O = 5.91
• CNC1=C(SC)C(=O)c2cccnc2C1=O = 5.10
• Cc1ccc(S(=O)(=O)C2=C(Cl)C(=O)c3ncccc3C2=O)cc1 = 4.42
• CNC1=C([S+](C)[O-])C(=O)c2cccnc2C1=O (stereo unspecified) = 4.48
• O=C1C(Sc2ccccc2)=C(Sc2ccccc2)C(=O)c2ncccc21 = 5.43
• O=C1c2cccnc2C(=O)C2SCCNC12 (stereo unspecified) = 5.37
• CNC1=C([S+](C)[O-])C(=O)c2ncccc2C1=O (stereo unspecified) = 4.92
• CNC1=C(Cl)C(=O)c2ncccc2C1=O = 5.61
• CNC1=C(SC)C(=O)c2ncccc2C1=O = 5.46
• CNC1=C(Sc2ccccc2)C(=O)c2cccnc2C1=O = 5.23
